Target: Cytochrome P450 1A2 (Homo sapiens);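 also: PubChem cytochrome P450 panel assay, CYP1A2 panel member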
Sequence (P05177 whole entry): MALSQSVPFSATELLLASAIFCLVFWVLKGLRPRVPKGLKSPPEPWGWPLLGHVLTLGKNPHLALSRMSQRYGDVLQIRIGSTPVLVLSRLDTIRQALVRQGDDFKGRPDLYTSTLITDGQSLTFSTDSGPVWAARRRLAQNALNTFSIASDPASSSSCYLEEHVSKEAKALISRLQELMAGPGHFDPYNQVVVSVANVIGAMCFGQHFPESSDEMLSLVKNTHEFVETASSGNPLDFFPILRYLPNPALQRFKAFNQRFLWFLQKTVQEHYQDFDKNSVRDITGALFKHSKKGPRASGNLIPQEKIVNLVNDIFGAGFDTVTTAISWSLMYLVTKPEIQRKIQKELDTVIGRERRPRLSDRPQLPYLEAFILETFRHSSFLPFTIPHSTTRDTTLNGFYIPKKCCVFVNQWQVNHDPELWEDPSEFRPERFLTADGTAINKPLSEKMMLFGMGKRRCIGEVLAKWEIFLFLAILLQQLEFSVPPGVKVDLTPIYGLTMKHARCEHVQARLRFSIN
Form field: AC50 (one value per entry).

Below, each entry is followed by its recorded AC50 result.
COc1ccccc1CNCC(O)(c1ccc(Cl)cc1)c1ccc(Cl)cc1; 10 µM (inconclusive)
CN(C)CCCc1cc(C(=O)Nc2ccc(-c3ccncc3)cc2)ccc1O; 39.8 µM (inconclusive)

Note AC50 for the compound shown: O=C(CCS(=O)(=O)c1cccc2nsnc12)NC1CCCCC1 25.1 µM (inconclusive)

Note AC50 for the compound shown: COCC(=O)N1CCC2(CC1)CN(Cc1cc(C(F)(F)F)cc(C(F)(F)F)c1)C2 25.1 µM (inconclusive)

Note AC50 for the compound shown: COC(=O)N1CCC[C@@]2(CCN(C(c3ccccc3)c3ccccc3)C2)C1 12.6 µM (inconclusive)

Note AC50 for the compound shown: CN(CCC(=O)O)S(=O)(=O)c1ccccc1 3.16 µM (inconclusive)
